# reported EC50; entries follow
# study target: T1, human LIGHT (TNFSF14), full length, membrane-bound (214E allele) (human, UniProt O43557 1-240)
# T1 construct: also called membrane LIGHT; human membrane LIGHT
# T1 sequence (O43557 whole entry K214E): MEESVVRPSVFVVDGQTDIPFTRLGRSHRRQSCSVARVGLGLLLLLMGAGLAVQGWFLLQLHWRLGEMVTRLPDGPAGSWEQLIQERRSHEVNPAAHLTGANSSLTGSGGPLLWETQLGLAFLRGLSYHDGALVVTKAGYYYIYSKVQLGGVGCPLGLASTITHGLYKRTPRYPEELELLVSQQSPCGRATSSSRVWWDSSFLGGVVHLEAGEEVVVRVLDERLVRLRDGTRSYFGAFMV
# assay comment: flow cytometry, EL4-LIGHT cells
result type: EC50 (pM)

>>> assay_value("3D12_var3 (antibody, human IgG4, V domains shown, human IgG4 (S241P, L248E, Kabat); also called 3D12 VL1VH3 (var3)) VH: QVQLVQSGAEVKKPGASVKVSCKASDYTFTDSEIHWVRQAPGQGLEWMGEIDPETGGTAYAQKFQGRVTLTADKSTSTAYMELSSLRSEDTAVYYCSRETDYFFDYWGQGTLVTVSS VL: DIQMTQSPSSLSASVGDRVTITCGASENIYGALNWYQRKQGKAPQLLIYGATNLADGVSSRFSGSGSGRDYTLTISSLQPEDVATYYCQNVLSTPWTFGQGTKLEIKR")
330
>>> assay_value("3D12_var9 (antibody, human IgG4, V domains shown, human IgG4 (S241P, L248E, Kabat); also called 3D12 VL3VH1 (var9)) VH: QVQLVQSGAEVKKPGASVKVSCKASDYTFTDSEIHWVRQAPGQGLEWIGEIDPETGGTAYNQKFKGRATLTADKSTSTAYMELSSLRSEDTAVYYCSRETDYFFDYWGQGTLVTVSS VL: DIQMTQSPSSLSASVGDRVTITCGASENIYGALNWYQQKPGKAPKLLIYGATNLADGVPSRFSGSGSGRDYTLTISSLQPEDVATYYCQNVLSTPWTFGQGTKLEIKR")
360
>>> assay_value("3B04_var1 (antibody, human IgG4, V domains shown, human IgG4 (S241P, L248E, Kabat); also called 3B04 VL1VH1 (var1)) VH: QVQLVQSGAEVKKPGASVKVSCKASGYTFTDYEMHWVRQAPGQGLEWIGEIDPETGDTAYSQKFKGRATLTADKSTSTAYMEFSSLRSEDTAVYYCSRETDYFFDYWGQGTLVTVSS VL: DIQMTQSPSSLSASVGDRVTITCGASENIYGALNWYQRKQGKAPQLLIYGATNLADGVSSRFSGSGSGRDYTLTISSLQPEDFATYYCQNVLTTPWTFGQGTKLEIKR")
240
>>> assay_value("3B04_var4 (antibody, human IgG4, V domains shown, human IgG4 (S241P, L248E, Kabat); also called 3B04 VL1VH4 (var4)) VH: QVQLVQSGAEVKKPGASVKVSCKASGYTFTDYEMHWVRQAPGQGLEWMGEIDPETGDTAYAQKFQGRVTLTADKSTSTAYMELSSLRSEDTAVYYCSRETDYFFDYWGQGTLVTVSS VL: DIQMTQSPSSLSASVGDRVTITCGASENIYGALNWYQRKQGKAPQLLIYGATNLADGVSSRFSGSGSGRDYTLTISSLQPEDFATYYCQNVLTTPWTFGQGTKLEIKR")
260
>>> assay_value("3B04_var15 (antibody, human IgG4, V domains shown, human IgG4 (S241P, L248E, Kabat); also called 3B04 VL4VH3 (var15)) VH: QVQLVQSGAEVKKPGASVKVSCKASGYTFTDYEMHWVRQAPGQGLEWMGEIDPETGDTAYAQKFQGRVTLTADKSTSTAYMEFSSLRSEDTAVYYCSRETDYFFDYWGQGTLVTVSS VL: DIQMTQSPSSLSASVGDRVTITCRASENIYGALNWYQQKPGKAPKLLIYGATNLAEGVPSRFSGSGSGRDYTLTISSLQPEDFATYYCQNVLTTPWTFGQGTKLEIKR")
390
